# Test system: VDR:RXRa (NR concentration 270 nM, RXRa partner concentration 90 nM)
# measurement.description: PBM binding z-score (relative to random genomic background probes); higher = stronger binding; sequences stand for … in GC…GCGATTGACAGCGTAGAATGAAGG
observed.property: PBM binding z-score
Returns: the value as a bare number; no unit string appended.

Name the recorded PBM binding z-score for "TAGCCTAGGTCATTCAGGGGCCAGGATAGAAAGC" .
2.94

Name the recorded PBM binding z-score for "AGAATGAGTTTATTAAGATCAGGGAATTGCGGTC" .
2.08

Name the recorded PBM binding z-score for "CCTACTGCGCCAAAAAGGTCATTGATGCCGATAA" .
4.94

Name the recorded PBM binding z-score for "GTAACAAGGTGAATAGGTCGTTGATGAGTAGGCG" .
1.22

Name the recorded PBM binding z-score for "CAAACTAGGTCAAGAGGTCAAATTCCGCTTCCCG" .
6.17

Name the recorded PBM binding z-score for "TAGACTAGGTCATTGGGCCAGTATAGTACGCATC" .
1.93

Name the recorded PBM binding z-score for "CCTTACGGGTCACCCCAGGTTATAGCATCGGAGT" .
4.91

Name the recorded PBM binding z-score for "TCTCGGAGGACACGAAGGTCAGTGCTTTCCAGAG" .
2.08

Name the recorded PBM binding z-score for "TCTTGTAGATGAATAGAGGTTAAGAAAGTGCGCT" .
1.94

Name the recorded PBM binding z-score for "TCTATTAGTTGATTAGGGCAAGCGAAACAGCGGA" .
0.402

Name the recorded PBM binding z-score for "TCGAGTAGGTTAGGGGCGTTCAGAATGGCGTCGA" .
0.157

Name the recorded PBM binding z-score for "AATACAGGGTCACTAGGCCACAGTAGGTACGAAT" .
4.27

Name the recorded PBM binding z-score for "CGTCAAAGCTCAAGGTAACGTAACAGAAAGCAGC" .
-0.278

Name the recorded PBM binding z-score for "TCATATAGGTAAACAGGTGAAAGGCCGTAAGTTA" .
0.988

Name the recorded PBM binding z-score for "CGAACTAGGTCACTGACAGGACAGTGAATAGTAA" .
1.77

Name the recorded PBM binding z-score for "TCATATAGGTAAAGGCTAGGTGAAAGTCCGATCT" .
0.546

Name the recorded PBM binding z-score for "CCTGGTAGGTCATGGTCAGCTAATCTACAGTATG" .
1.89

----------
Task for the reader: assign each of the following sequences its reported PBM binding z-score.
# System: PPARg:RXRa IVT, anti-PPARg (NR concentration 270 nM, RXRa partner concentration 90 nM)
# measurement.description: PBM binding z-score (relative to random genomic background probes); higher = stronger binding; sequences stand for … in GC…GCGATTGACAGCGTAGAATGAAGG
Returns: the value as a bare number; no unit string appended.

Name the recorded PBM binding z-score for "TGTCAAAGTTCAAAGGTAGCGTAAGTATCCACAC" .
4.06

Name the recorded PBM binding z-score for "GGTGCTAGGTCAACTGATGGTCAGCTAAAGCTCG" .
4.91

Name the recorded PBM binding z-score for "GATACAGGGTCAGCTCGAGGCCAGAGTATGGAAA" .
2.36

Name the recorded PBM binding z-score for "TCATATAGGTAAACAGGTAAAAGTCCGTAAGTTA" .
3.81

Name the recorded PBM binding z-score for "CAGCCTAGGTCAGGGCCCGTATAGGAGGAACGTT" .
1.55

Name the recorded PBM binding z-score for "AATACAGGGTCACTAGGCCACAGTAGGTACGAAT" .
6.73

Name the recorded PBM binding z-score for "ACAGACAGGTGATGAAGGTAGCTCAGGCTATCAT" .
-0.161

Name the recorded PBM binding z-score for "CGTCCAAGGTCAAAGGTCAGTTAAGAGATGACGG" .
5.71

Name the recorded PBM binding z-score for "GTTGCTAGGTCAACTGATGGTCAGCTAAAGCTCG" .
4.94

Name the recorded PBM binding z-score for "ATATGTAGGTTATCGGGTCACTCAGTTTGCGCAT" .
7.75

Name the recorded PBM binding z-score for "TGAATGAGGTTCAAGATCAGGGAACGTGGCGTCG" .
0.696

Name the recorded PBM binding z-score for "CCTCGGAGGACAGATGGTCAGAGCTGTCCGCTTT" .
-0.558

Name the recorded PBM binding z-score for "TCATATTGGTAAAGGTGAAAGTCGAACGATATGA" .
1.69

Name the recorded PBM binding z-score for "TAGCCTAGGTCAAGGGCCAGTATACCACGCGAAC" .
3.19

Name the recorded PBM binding z-score for "CCTCGGAGGACCACAGGAGGTCAGAGCTGCCAGA" .
-0.16

Name the recorded PBM binding z-score for "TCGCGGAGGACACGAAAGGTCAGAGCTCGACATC" .
1.5

Name the recorded PBM binding z-score for "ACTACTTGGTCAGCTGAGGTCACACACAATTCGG" .
2.81

Name the recorded PBM binding z-score for "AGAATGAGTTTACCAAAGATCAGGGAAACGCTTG" .
-0.237

Name the recorded PBM binding z-score for "CCTAATGGGCCACGAAAGGTCATTGATTCAGTGA" .
4.1

Name the recorded PBM binding z-score for "CCTGCTAAGTCAATGGTCAGCTAAAGCAGCTCGC" .
-0.663

Name the recorded PBM binding z-score for "AGAATCAGGTTATTAAGATCAGGGAATTGCGGTC" .
2.28

Name the recorded PBM binding z-score for "CGAACTAGGTCATAGACAGGACAGTGAATAGTAA" .
8.39

Name the recorded PBM binding z-score for "TATATAGGGTCAAAGGCCAGAGTACGAATGTCGA" .
5.37

Name the recorded PBM binding z-score for "GCTATTAGTTGAAAGGGCAACCAAATGATTCTCG" .
1.15

Name the recorded PBM binding z-score for "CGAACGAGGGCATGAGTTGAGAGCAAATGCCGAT" .
2.16

Name the recorded PBM binding z-score for "TCTGCTAGGTCAACGATGGTCAGCTACTCTGCTA" .
4.17

Name the recorded PBM binding z-score for "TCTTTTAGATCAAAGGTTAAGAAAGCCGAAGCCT" .
3.01

Name the recorded PBM binding z-score for "AGAATGAGGTTGTACGTAGATCAGGGAAGAAAGT" .
0.566

Name the recorded PBM binding z-score for "TCTAGCAGGCCAGAGGTTCACTCAAGAGGTACGG" .
-0.232

Name the recorded PBM binding z-score for "TCTATTAGTTGACGGGCAACCGACGAGTCCGTTT" .
0.118

Name the recorded PBM binding z-score for "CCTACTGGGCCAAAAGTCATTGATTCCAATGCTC" .
4.42

Name the recorded PBM binding z-score for "CATACTGGGCCAAAGGTCATTGATTCCAATGCTC" .
6.31

Name the recorded PBM binding z-score for "TCTTGTAGATCAGCAGGTTCAGAAAGCTGGCCAA" .
0.189

Name the recorded PBM binding z-score for "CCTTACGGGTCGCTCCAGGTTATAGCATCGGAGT" .
0.244

Name the recorded PBM binding z-score for "TCATATAGGTAAATGCTAGGTGAATGTCCGATCT" .
2.57

Name the recorded PBM binding z-score for "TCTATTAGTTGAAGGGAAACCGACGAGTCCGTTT" .
-0.0119

Name the recorded PBM binding z-score for "AATACAGGGTCATAGTAGGCCAGAGTACGCACAG" .
4.56

Name the recorded PBM binding z-score for "TCTAGTTGGTCACGCAGGTCACACACGACGGGTA" .
3.48

Name the recorded PBM binding z-score for "TTACCAAGGTGAGCTGGGGTCGTTGATCCAACTC" .
2.07
